Target: Syk (Homo sapiens)
Test: Syk IC50 (Table 1; method not given)
Assay type: biochemical
measured-endpoint: IC50

*Q* Fill blank: measured IC50 of the molecule C#CCNc1nc(Nc2cccc(NC(C)=O)c2)ncc1C(N)=O [Example 10] is ____.
*A* 100 to 1000 nM

*Q* Given CC(=O)Nc1cccc(Nc2ncc(C(N)=O)c(NCC(=O)N3CCCC3)n2)c1 [Example 65] , state its recorded IC50.
*A* > 1000 nM

*Q* Which IC50 value belongs to COCCNc1nc(Nc2cccc(NC(C)=O)c2)ncc1C(N)=O [Example 14] ?
*A* 100 to 1000 nM

*Q* GET /values?readout=IC50&item= NC(=O)c1cnc(Nc2ccc(Cl)c(NC(=O)N3CCCC3)c2)nc1NCc1ccccc1 [Example 130]
*A* > 1000 nM

*Q* Which IC50 value belongs to CCOC(=O)Nc1cccc(Nc2ncc(C(N)=O)c(NC3CCCC3)n2)c1 [Example 24] ?
*A* 100 to 1000 nM

*Q* What does the record list as IC50 for CC(=O)Nc1cccc(Nc2ncc(C(N)=O)c(NC[C@@H](O)CO)n2)c1 [Example 83] ?
*A* > 1000 nM

*Q* Given the molecule CNC(=O)Nc1cc(Nc2ncc(C(N)=O)c(NCc3ccccc3)n2)ccc1Cl [Example 131] , what is its reported IC50?
*A* > 1000 nM

*Q* Quick one: IC50 of CC(=O)Nc1cccc(Nc2ncc(C(N)=O)c(NC[C@H](O)c3ccccc3)n2)c1 [Example 49] ?
*A* 100 to 1000 nM

* * *

Target: TYK2 (Homo sapiens)
Construct: 5 μl of catalytic domain recombinant Kinase enzyme+Tyr peptide substrate (Invitrogen, Calif.)
Sequence (P29597 897-1176 limits assumed): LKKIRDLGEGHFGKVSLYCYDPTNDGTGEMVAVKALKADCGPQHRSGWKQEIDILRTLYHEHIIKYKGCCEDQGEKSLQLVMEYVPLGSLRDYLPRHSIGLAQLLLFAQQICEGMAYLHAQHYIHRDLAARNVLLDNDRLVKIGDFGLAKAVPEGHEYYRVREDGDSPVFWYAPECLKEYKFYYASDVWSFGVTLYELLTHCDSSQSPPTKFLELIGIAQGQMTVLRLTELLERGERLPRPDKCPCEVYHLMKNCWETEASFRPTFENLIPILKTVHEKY
Test: Z'-LYTE kinase assay, TYK2 tyrosine phosphorylation activity
pIC50: −log10 of the molar value.
measured-endpoint: pIC50

*Q* Value lookup for pIC50; key = CN(C(=O)N1CCCC1)c1cccc(Nc2ncc(C(N)=O)c(NCc3ccccc3)n2)c1 [Example 141]
*A* 6.00 to 7.00

*Q* Quick check: pIC50 of CN(C)[C@@H]1CCN(C(=O)Nc2cccc(Nc3ncc(C(N)=O)c(NCc4ccccc4)n3)c2)C1 [Example 210] ?
*A* 8.00 to 9.00

*Q* Please report the recorded pIC50 for CC(=O)Nc1cccc(Nc2ncc(C(N)=O)c(NCc3ccccn3)n2)c1 [Example 187] .
*A* 7.00 to 8.00

*Q* Can you look up the measured pIC50 of CNC(=O)c1cnc(Nc2cccc(NC(=O)COC)c2)nc1NCc1ccccc1 [Example 113] for me?
*A* 6.00 to 7.00

*Q* So what's the measured pIC50 for this one? CCC(C)CNc1nc(Nc2cccc(NC(C)=O)c2)ncc1C(N)=O (stereo not drawn) [Example 249]
*A* 8.00 to 9.00

*Q* # get_value(readout='pIC50', item= C[C@@H](Nc1nc(Nc2cccc(NC(=O)N3CCC[C@@H]3C)c2)ncc1C(N)=O)c1ccccc1 [Example 137] )
*A* 7.00 to 8.00

*Q* GET /values?readout=pIC50&item= CC(=O)Nc1cc(Nc2ncc(C(N)=O)c(NCc3cccc(F)c3)n2)ccc1OCCN(C)C [Example 228]
*A* 7.00 to 8.00

*Q* Reported pIC50, compound NC(=O)c1cnc(Nc2cccc(NC(=O)[C@@H]3CCCO3)c2)nc1NCc1cccc(F)c1 [Example 208] : ____
*A* 7.00 to 8.00

*Q* Entry CC(=O)Nc1cccc(Nc2cc(N[C@H](C)c3ccccc3)c(C(N)=O)cn2)c1 [Example 322] has what pIC50?
*A* 6.00 to 7.00

*Q* Requested read-out: pIC50. Entry: CC(=O)Nc1cc(Cl)cc(Nc2ncc(C(N)=O)c(NCc3ccccc3)n2)c1 [Example 260]
*A* 7.00 to 8.00

*Q* Item CC(=O)Nc1cccc(Nc2ncc(C(N)=O)c(NCc3cccc(F)c3F)n2)c1 [Example 95] has what recorded pIC50?
*A* 7.00 to 8.00

*Q* Return reported pIC50; argument: C[C@@H](Nc1nc(Nc2ccc(Cl)c(NC(N)=O)c2)ncc1C(N)=O)c1ccccc1 [Example 193]
*A* 6.00 to 7.00

*Q* State the recorded pIC50 for this entry: NC(=O)c1cnc(Nc2ccc(Cl)c(NC(=O)N3CCCC3)c2)nc1NCC1CC1 [Example 174]
*A* 7.00 to 8.00

*Q* Fill in the blank: the reported pIC50 of CC(=O)Nc1cc(Nc2ncc(C(N)=O)c(Nc3cccc4nn(C)cc34)n2)ccc1OCCN(C)C [Example 229] is ____.
*A* 6.00 to 7.00

*Q* Sample C[C@@H](Nc1nc(Nc2cccc(NC(=O)N3CCN(C)CC3)c2)ncc1C(N)=O)c1ccccc1 [Example 254] — what was its pIC50?
*A* 7.00 to 8.00

*Q* Please report the recorded pIC50 for CC(=O)Nc1cccc(Nc2ncc(C(N)=O)c(N[C@@H](C)C(N)=O)n2)c1 [Example 85] .
*A* 7.00 to 8.00

*Q* Give the measured pIC50 of NC(=O)c1cnc(Nc2cccc(NC(=O)N3CCCC3)c2)nc1NC1CCCC1 [Example 37] .
*A* 8.00 to 9.00

*Q* Which pIC50 value belongs to CC(=O)Nc1cccc(Nc2ncc(C(N)=O)c(NCc3ccc(F)cc3)n2)c1 [Example 103] ?
*A* 7.00 to 8.00

*Q* Query: pIC50; subject: NC(=O)c1cnc(Nc2cccc(NC(=O)N3CCCCC3)c2)nc1NCc1ccccc1 [Example 218]
*A* 8.00 to 9.00

*Q* Give the measured pIC50 of CNC(=O)Nc1cccc(Nc2ncc(C(N)=O)c(NCc3ccccc3)n2)c1 [Example 39] .
*A* 8.00 to 9.00

*Q* pIC50 lookup needed for CC(=O)Nc1cc(Nc2ncc(C(N)=O)c(Nc3cccc4nn(C)cc34)n2)ccc1OCCN1CCCC1 [Example 224] , thanks.
*A* 6.00 to 7.00

*Q* For the compound CC(=O)Nc1cc(Nc2ncc(C(N)=O)c(NCc3ccccc3)n2)ccc1Cl [Example 2] , what pIC50 is on record?
*A* 7.00 to 8.00

*Q* Entry CC(C)[C@H](C)Nc1nc(Nc2ccc(Cl)c(NC(=O)N3CCCC3)c2)ncc1C(N)=O [Example 248] : reported pIC50 = ?
*A* 7.00 to 8.00

*Q* What value of pIC50 has been reported for the following compound? NC(=O)c1cnc(Nc2cccc(NC(=O)N3CCOCC3)c2)nc1NCc1ccccc1 [Example 217]
*A* 8.00 to 9.00

*Q* Which pIC50 value is on record for CC(=O)Nc1cccc(Nc2ncc(C(N)=O)c(NC3CCOCC3)n2)c1 [Example 75] ?
*A* 7.00 to 8.00

*Q* Suppose we examine the compound CN(C(=O)N1CCCC1)c1cc(Nc2ncc(C(N)=O)c(NCc3ccccc3)n2)ccc1Cl [Example 241] ; what pIC50 value has been reported?
*A* 6.00 to 7.00

*Q* Give the measured pIC50 of NC(=O)c1cnc(Nc2cccc(NC(=O)N3CCCC3)c2)nc1NCc1ccccc1F [Example 168] .
*A* 8.00 to 9.00

*Q* Sample NC(=O)c1cnc(Nc2cccc(NC(=O)C3CCC3)c2)nc1NC1CCCC1 [Example 20] — what was its pIC50?
*A* 8.00 to 9.00

*Q* Give its pIC50 value. Item: C[C@@H](Nc1nc(Nc2ccc(Cl)c(NC(=O)N(C)C)c2)ncc1C(N)=O)c1ccccc1 [Example 195]
*A* 7.00 to 8.00

*Q* Would you mind telling me what pIC50 value was observed for CC(=O)Nc1cccc(Nc2ncc(C(N)=O)c(NCCC(C)C)n2)c1 [Example 251] ?
*A* 8.00 to 9.00

*Q* What value of pIC50 has been reported for the following compound? CNC(=O)Nc1cc(Nc2ncc(C(N)=O)c(NCC3CC3)n2)ccc1Cl [Example 178]
*A* 7.00 to 8.00

*Q* Requested read-out: pIC50. Entry: CC(=O)Nc1cccc(Nc2ncc(C(N)=O)c(NCC3CCCN(C(=O)Nc4ccc(F)cc4)C3)n2)c1 (stereo not drawn) [Example 118]
*A* 7.00 to 8.00

*Q* // pIC50 lookup, key: CC[C@H](C)Nc1nc(Nc2ccc(Cl)c(NC(=O)N3CCCC3)c2)ncc1C(N)=O [Example 176]
*A* 7.00 to 8.00
